Test system: Aspergillus niger
Assay: Antifungal activity against Aspergillus niger NBRC 31032 after 2 days by paper disk method
Type: functional
READOUT_NAME: MEC (µg)

* C=CCC/C=C/C=C/C=C/CC/C=C/C(O)C(O)C1OC(C(O)C(O)C(=C)CCC(O)C2CC(O)C(O)C(C(O)C(O)/C=C(\C)CCC(O)CC(O)C(O)C(C)CC(O)C(O)CC(C)CC/C=C/CC(O)CO)O2)CC(O)C1O (stereo not given) | 8
* C=CCC/C=C/C=C/C=C/CC/C=C/C(O)C(O)C1OC(C(O)C(O)C(=C)CCC(O)C2CC(O)C(O)C(C(O)C(O)/C=C(\C)CCC(O)CC(O)C(O)C(C)CC(O)CC(C)/C=C(\C)CC(O)CC(C)CC(O)C3CC(O)C(O)C(CC(O)CC(O)CO)O3)O2)CC(O)C1O (stereo not given) | 6
* C=CCC/C=C/C=C/C=C/CC/C=C/C(O)C(O)C1OC(C(O)C(O)C(=C)CCC(O)C2CC(O)C(O)C(C(O)C(O)/C=C(\C)CCC(O)CC(O)C(O)C(C)CC(O)C(O)CCCC(O)CCCC(O)CCCC(O)/C=C/CC(O)/C=C/CC(O)CO)O2)CC(O)C1O (stereo not given) | 6
